Data origin: the supplement of paper PMC10724198

- Test system: Saccharomyces cerevisiae
- assayRemarks: protein stability index of tFT-peptide fusion (C-terminal peptide) (PSI (0-1 scale)); higher = more stable (slower turnover)
- testContext: genetic background: doa10 deletion; temperature: 30 C
Classification field: Yes = protein stability index at or over 0.3; No = protein stability index under 0.3.

>>> assignedclass("VLDFSVPRHVLH")
"Yes"
>>> assignedclass("GGIVLLVRVCGP")
"Yes"
>>> assignedclass("VACTCILVALVV")
"No"
>>> assignedclass("VFLCVRLGFIFL")
"Yes"
>>> assignedclass("DVPLFLPLPVSV")
"No"
>>> assignedclass("VGDIRSFALWYA")
"Yes"
>>> assignedclass("LAPPFPVVLTPA")
"No"
>>> assignedclass("STLPACNCLKLL")
"Yes"
>>> assignedclass("LCRCPVGVFVLL")
"Yes"
>>> assignedclass("ALVGEVLWFQLV")
"Yes"
>>> assignedclass("VCVARICIWDFL")
"Yes"
>>> assignedclass("GGGWGVFVVLWW")
"No"
>>> assignedclass("WGRENLTRVKLE")
"No"
>>> assignedclass("GIGYMFLNVWLV")
"No"
>>> assignedclass("PHLDLYRLSALI")
"Yes"
>>> assignedclass("VRMVIFSSVYLT")
"No"
>>> assignedclass("VIAYSLLSWGDF")
"Yes"
>>> assignedclass("RVFRLDRRLQVV")
"No"

---

- System: Saccharomyces cerevisiae
- assayRemarks: protein stability index of tFT-peptide fusion (C-terminal peptide) (PSI (0-1 scale)); higher = more stable (slower turnover)
- testContext: genetic background: wild type; temperature: 30 C
Classification field: MET = protein stability index at or over 0.4; NOT MET = protein stability index under 0.4.

>>> assignedclass("IQICLNRLRLFH")
"NOT MET"
>>> assignedclass("DPKQVRIQSSWL")
"MET"
>>> assignedclass("AAVQVCVLLLLL")
"NOT MET"
>>> assignedclass("WLWFVGCLAAPL")
"MET"
>>> assignedclass("LVLFYLWSSVWA")
"NOT MET"
>>> assignedclass("VVFLFVEAVVGV")
"NOT MET"
>>> assignedclass("KLKDLTRIKIFR")
"MET"
>>> assignedclass("FCFLLLVSFFFV")
"NOT MET"
>>> assignedclass("KIKKLKNRRKLV")
"NOT MET"
>>> assignedclass("VGDIRSFALWYA")
"MET"
>>> assignedclass("SMPWFWFVRGIG")
"MET"
>>> assignedclass("LLFTFSLSFFFR")
"MET"
>>> assignedclass("PYVHPFRCYWVL")
"NOT MET"
>>> assignedclass("FCIFAMQICTSA")
"NOT MET"
>>> assignedclass("WFFRCLFLLSLF")
"NOT MET"
>>> assignedclass("FGPVLLVSFLFS")
"NOT MET"
>>> assignedclass("VLILFFLVVFYV")
"NOT MET"

---

- Test system: Saccharomyces cerevisiae
- assayRemarks: protein stability index of tFT-peptide fusion in wild type (PSI (0-1 scale)); higher = more stable (slower turnover)
- testContext: genetic background: wild type
Classification field: Fulfilled = protein stability index at or over 0.1; Not fulfilled = protein stability index under 0.1.

>>> assignedclass("PSLAASFWRVVGY")
"Fulfilled"
>>> assignedclass("PWKRNHLIKLLN")
"Not fulfilled"
>>> assignedclass("RFIQPLPVQFLN")
"Not fulfilled"
>>> assignedclass("RVTRLDAIYFLI")
"Not fulfilled"
>>> assignedclass("GRYMCSVGCWFR")
"Fulfilled"
>>> assignedclass("PSLAASFWRVVS")
"Fulfilled"
>>> assignedclass("AIELPMCPLLLR")
"Fulfilled"
>>> assignedclass("LVVYLSCVAQIN")
"Not fulfilled"
>>> assignedclass("RSLRVLLPTYFR")
"Fulfilled"
>>> assignedclass("AITLPMCPRLLR")
"Fulfilled"
>>> assignedclass("LKILTQKMNHQN")
"Fulfilled"
>>> assignedclass("RLIQPLPVQFTN")
"Fulfilled"
>>> assignedclass("PSLAASFWPVVG")
"Fulfilled"
>>> assignedclass("GLYMCSEGCWFR")
"Fulfilled"
>>> assignedclass("FEMRWTFRYWVN")
"Not fulfilled"
>>> assignedclass("KRGAVGGWRLVG")
"Fulfilled"
>>> assignedclass("RRTRLDAIYFRI")
"Fulfilled"
>>> assignedclass("KKHKKGQKQYIN")
"Fulfilled"
>>> assignedclass("CLVSLPILLYFR")
"Not fulfilled"
>>> assignedclass("KKHKKGQKQKLN")
"Fulfilled"
>>> assignedclass("KKHKKGAKQKIN")
"Not fulfilled"
>>> assignedclass("AITLPPCPLLLR")
"Fulfilled"
>>> assignedclass("PRLAASFWRVVG")
"Fulfilled"
>>> assignedclass("GLYMCSVRCWFR")
"Fulfilled"
>>> assignedclass("LIVYLSCVACIN")
"Not fulfilled"
>>> assignedclass("PSLAASWWRVVG")
"Fulfilled"
>>> assignedclass("PSLAASFWRVVD")
"Fulfilled"
>>> assignedclass("ARWRVGLWRGAQ")
"Fulfilled"
>>> assignedclass("LKILRQKMWHQN")
"Fulfilled"
>>> assignedclass("RLIQPLPVQFYN")
"Not fulfilled"
>>> assignedclass("CLVSLPIILFFR")
"Not fulfilled"
>>> assignedclass("RLIQPLPVQFHN")
"Fulfilled"
>>> assignedclass("CMSCGYKFRTNN")
"Fulfilled"
>>> assignedclass("LKGLRQKMNHQN")
"Fulfilled"
>>> assignedclass("AITLPMCPCLLR")
"Fulfilled"
>>> assignedclass("PCKRNHLIKLLN")
"Fulfilled"
>>> assignedclass("RSLRVLLPLYFRE")
"Fulfilled"
>>> assignedclass("CTSCGYKFRTNR")
"Fulfilled"
>>> assignedclass("QTSCGYKFRTNN")
"Fulfilled"
>>> assignedclass("CTSQGYKFRTNN")
"Fulfilled"
>>> assignedclass("RVTRLDAIYFRF")
"Fulfilled"
>>> assignedclass("FSMRPTFRYWVN")
"Fulfilled"
>>> assignedclass("LIILRQKMNHQN")
"Fulfilled"
>>> assignedclass("RLIQPLPIQFLN")
"Not fulfilled"
>>> assignedclass("CLVSLPILLFDR")
"Fulfilled"
>>> assignedclass("RVTRLDAIYNRI")
"Fulfilled"
>>> assignedclass("ETSCGYKFRTNN")
"Fulfilled"
>>> assignedclass("LKILRQKMNHQNC")
"Fulfilled"
>>> assignedclass("VRGAVGGWRLGG")
"Fulfilled"
>>> assignedclass("CLVSLPTLLFFR")
"Not fulfilled"
>>> assignedclass("VRGAYGGWRLVG")
"Fulfilled"
>>> assignedclass("RLIQPLPVQFLL")
"Fulfilled"
>>> assignedclass("GLYMCSRGCWFR")
"Fulfilled"
>>> assignedclass("RPLRVLLPLYFR")
"Fulfilled"
>>> assignedclass("KKHKKGQKQKINE")
"Fulfilled"
>>> assignedclass("AITLPMRPLLLR")
"Fulfilled"
>>> assignedclass("QKILRQKMNHQN")
"Fulfilled"
>>> assignedclass("PSLGASFWRVVG")
"Fulfilled"
>>> assignedclass("KKHGKGQKQKIN")
"Not fulfilled"
>>> assignedclass("PVKRNHLIKLLN")
"Fulfilled"
>>> assignedclass("PSLAASFWRVVGC")
"Fulfilled"
>>> assignedclass("RSLRVLLPLYFR")
"Fulfilled"
>>> assignedclass("FSMRWRFRYWVN")
"Not fulfilled"
>>> assignedclass("CLVSMPILLFFR")
"Not fulfilled"
>>> assignedclass("ISLRVLLPLYFR")
"Fulfilled"
>>> assignedclass("TLVSLPILLFFR")
"Not fulfilled"
>>> assignedclass("PSLAAHFWRVVG")
"Fulfilled"
>>> assignedclass("GLYMCSVGCHFR")
"Fulfilled"
>>> assignedclass("LVVYLQCVACIN")
"Not fulfilled"
>>> assignedclass("LKILRQKMNHFN")
"Fulfilled"
>>> assignedclass("RLIQGLPVQFLN")
"Not fulfilled"
>>> assignedclass("GLYMCSVGCWWR")
"Fulfilled"
>>> assignedclass("PCLAASFWRVVG")
"Fulfilled"
>>> assignedclass("LVVYLSCVACIH")
"Not fulfilled"
>>> assignedclass("CTSCGAKFRTNN")
"Fulfilled"
>>> assignedclass("RVTRLDAIYFSI")
"Fulfilled"
>>> assignedclass("LVVYLYCVACIN")
"Not fulfilled"
>>> assignedclass("AITLPMCPLLLRH")
"Fulfilled"
>>> assignedclass("CLVSLPILLFFP")
"Fulfilled"
>>> assignedclass("PQLAASFWRVVG")
"Fulfilled"

---

- Tested on: Saccharomyces cerevisiae
- assayRemarks: protein stability index of tFT-peptide fusion (C-terminal peptide) (PSI (0-1 scale)); higher = more stable (slower turnover)
- testContext: genetic background: cdc53-1; temperature: 37 C
protein stability index reference
experimentalEndpoint: protein stability index

>>> endpointresult("ALFLLWVVMHDV")
0.337
>>> endpointresult("SPTIFLPLFLTS")
0.415
>>> endpointresult("VCCYILFFLFPV")
0.522
>>> endpointresult("VRMVIFSSVYLT")
0.509
>>> endpointresult("NTNITHHSVKLR")
0.735
>>> endpointresult("VWWWGGVGWLMV")
0.601
>>> endpointresult("YSIHYLRFFSLF")
0.667
>>> endpointresult("PWGSHLYYVVCI")
0.228
>>> endpointresult("CWYVCSFWPYVV")
0.648
>>> endpointresult("LLCLCSLPVFAS")
0.319
